The following compounds are shown together with reported TR-FRET signal values.
# target desc: MAGE-A11:PCF11 (Homo sapiens (Human), UniProt P43364)
# Sequence (P43364 218-429): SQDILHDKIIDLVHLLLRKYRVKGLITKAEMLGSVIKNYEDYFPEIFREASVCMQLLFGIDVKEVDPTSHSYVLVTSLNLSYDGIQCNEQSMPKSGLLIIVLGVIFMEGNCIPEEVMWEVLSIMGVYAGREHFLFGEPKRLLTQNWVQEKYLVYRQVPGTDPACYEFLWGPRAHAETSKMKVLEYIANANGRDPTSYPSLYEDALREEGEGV
# procedure text: TR-FRET single point screening at 15 μM
# Format: binding
# Set-up: unit not given here
# assay setup: single point TR-FRET screening of quinoline compounds against MAGE-A11:PCF11; 15 μM
# Excerpt: TR-FRET Assays and High-throughput Screen. Terbium-anti-GST antibody, 1 M Tris pH 7.5 1 M MgCl2 and 1 M DTT were purchased from Invitrogen (Carlsbad, CA), BSA was purchased from Sigma (St. Louis, MO). Dimethyl sulfoxide (DMSO) was purchased from Fisher Scientific (Pittsburgh, PA). Black 384-well low volume plates and 384-well polypropylene compound plates were purchased from Corning Incorporated (Tewksbury, MA). […]
readout type: TR-FRET signal

>>> df
                    structure_smiles_string                               target_desc    readout_type  recorded_result
0  CCCN(CCCNc1ccnc2cc(Cl)ccc12)Cc1ccc(Br)o1  MAGE-A11:PCF11 (Homo sapiens (Human), UniProt P43364)  TR-FRET signal            14.48
1  CCCN(CCCNc1ccnc2cc(Cl)ccc12)Cc1cccc(C#N)c1  MAGE-A11:PCF11 (Homo sapiens (Human), UniProt P43364)  TR-FRET signal            12.91
2  CCCN(CCCNc1ccnc2cc(C(F)(F)F)ccc12)Cc1c[nH]c2ccccc12  MAGE-A11:PCF11 (Homo sapiens (Human), UniProt P43364)  TR-FRET signal            16.16
3  CCCN(CCCNc1ccnc2cc(Cl)ccc12)Cc1c2ccccc2cc2ccccc12  MAGE-A11:PCF11 (Homo sapiens (Human), UniProt P43364)  TR-FRET signal            15.49
4  CCCN(CCCNc1ccnc2cc(C(F)(F)F)ccc12)Cc1cccc(C(F)(F)F)c1  MAGE-A11:PCF11 (Homo sapiens (Human), UniProt P43364)  TR-FRET signal            13.02
5  CCCN(CCCNc1c2ccc(Cl)cc2nc2ccc(OC)cc12)Cc1ccncc1  MAGE-A11:PCF11 (Homo sapiens (Human), UniProt P43364)  TR-FRET signal           −1.797
6  Clc1ccc2c(NCCCN(Cc3ccccc3)Cc3nccs3)ccnc2c1  MAGE-A11:PCF11 (Homo sapiens (Human), UniProt P43364)  TR-FRET signal           −4.148
7  Clc1cccc(-c2ccc(CNCCCNc3ccnc4cc(Cl)ccc34)o2)c1  MAGE-A11:PCF11 (Homo sapiens (Human), UniProt P43364)  TR-FRET signal            33.51
8  COc1ccc2nc3cc(Cl)ccc3c(NCCCNCc3cccc(OC(F)(F)F)c3)c2c1  MAGE-A11:PCF11 (Homo sapiens (Human), UniProt P43364)  TR-FRET signal           −73.54

###

# target desc: interaction between GST-MAGEA11 MHD and FAM-PCF11_4 peptide (MAGE-A11:PCF11) (Homo sapiens (Human))
# Sequence (P43364 218-429): as above
# procedure text: TR-FRET dose response competition assay for disruption of MAGE-A11:PCF11 binding
# assay setup: Table 6, 4-aminoquinoline compounds; read-out: TR-FRET, IC50
readout type: log10(IC50) (log10 of the value in nM)

In [3]: df
Out[3]:
                    structure_smiles_string  readout_type  recorded_result
0  FC(F)(F)c1cc(-c2ccc3c(NCCCNCc4ccc5[nH]ccc5c4)ccnc3c2)cc(C(F)(F)F)c1   log10(IC50)             2.30
1  Cn1ccc2cc(CNCCCNc3ccnc4cc(C(F)(F)F)ccc34)ccc21   log10(IC50)             3.06
2  c1ccc(-c2ccc3c(NCCCNCc4cccc5c4OCO5)ccnc3c2)cc1   log10(IC50)             4.31
3  FC(F)(F)c1cc(-c2ccc3c(NCCCNCc4ccco4)ccnc3c2)cc(C(F)(F)F)c1   log10(IC50)             2.76
4  CC(C)(C)c1ccc(-c2ccc3c(NCCCNCc4ccc5[nH]ccc5c4)ccnc3c2)cc1   log10(IC50)             2.11
5  COc1ccc(F)cc1CNCCCNc1ccnc2cc(-c3ccc(C(F)(F)F)cc3)ccc12   log10(IC50)             3.75
6  C=CC(=O)N(CCCNc1ccnc2ccccc12)Cc1ccc2[nH]ccc2c1   log10(IC50)             3.54
